Each entry below carries its recorded self-splicing fitness (ln).
Test: self-splicing fitness, log relative to wild type (ln ratio); higher = more splicing; Tetrahymena group I intron in knt gene, E. coli kanamycin selection, DiMSum; sequences stand for … in CUCUCU…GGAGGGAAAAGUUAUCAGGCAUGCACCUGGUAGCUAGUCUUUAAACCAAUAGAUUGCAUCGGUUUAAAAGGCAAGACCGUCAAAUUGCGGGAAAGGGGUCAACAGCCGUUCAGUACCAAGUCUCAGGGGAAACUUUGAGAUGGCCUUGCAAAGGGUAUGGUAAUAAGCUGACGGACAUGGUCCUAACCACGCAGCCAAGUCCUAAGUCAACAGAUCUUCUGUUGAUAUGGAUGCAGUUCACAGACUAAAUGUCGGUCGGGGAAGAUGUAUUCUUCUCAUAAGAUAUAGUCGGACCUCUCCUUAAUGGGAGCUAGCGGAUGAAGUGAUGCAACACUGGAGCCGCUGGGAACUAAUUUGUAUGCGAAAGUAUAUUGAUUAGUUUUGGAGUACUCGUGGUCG;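 note: selection with 25 µg/mL kanamycin versus none on LB agar overnight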
Details: 37 °C

| sequence input | self-splicing fitness (ln) |
| --- | --- |
| UUAUAGCAAUAUUACGGUCC | -2.93 |
| UGAUAGCAAUAUUACGAGGU | -3.13 |
| UUAUAGCAAUAUUACGGCGA | -0.219 |
| CUAGAGCAAUAUUACGCUGG | -2.1 |
| AAUGAGCAAUAUUACGACUU | 0.263 |
| AAUAAGCAAUAUUACGCUUA | -1.74 |
| CAGUAGCAAUAUUACGAUAC | -2.51 |
| UCGCAGCAAUAUUACGGCUC | -2.96 |
| AUGGAGCAAUAUUACGGGUG | -2.18 |
| AGACAGCAAUAUUACGAACC | -0.29 |
| UCAUAGCAAUAUUACGGGCU | -2.19 |
| AAGUAGCAAUAUUACGAAUU | -0.748 |
| ACGCAGCAAUAUUACGACAC | -0.767 |

* * *

Test: self-splicing fitness, log relative to wild type (ln ratio); higher = more splicing; Tetrahymena group I intron in knt gene, E. coli kanamycin selection, DiMSum; sequences stand for … in CUCUCU…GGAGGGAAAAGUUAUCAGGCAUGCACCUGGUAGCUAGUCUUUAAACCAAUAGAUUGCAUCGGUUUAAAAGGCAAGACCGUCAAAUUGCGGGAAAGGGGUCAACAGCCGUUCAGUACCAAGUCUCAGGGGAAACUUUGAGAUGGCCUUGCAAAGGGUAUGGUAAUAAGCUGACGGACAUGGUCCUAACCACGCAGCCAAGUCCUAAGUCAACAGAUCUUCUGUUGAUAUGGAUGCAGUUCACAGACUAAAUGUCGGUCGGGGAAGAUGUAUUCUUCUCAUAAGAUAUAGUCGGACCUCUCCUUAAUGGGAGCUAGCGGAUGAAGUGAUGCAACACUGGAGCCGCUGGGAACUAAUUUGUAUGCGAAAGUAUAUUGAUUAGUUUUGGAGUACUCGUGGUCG
Conditions: 30 °C
Each entry below carries its recorded self-splicing fitness (ln).
property name: self-splicing fitness (ln)

| sequence input | endpoint result |
| --- | --- |
| GGAGAGCAAUAUUACGCCAA | -2.04 |
| UGGUAGCAAUAUUACGAAAG | -3.06 |
| CUAUAGCAAUAUUACGCCCA | -3.06 |
| CGAUAGCAAUAUUACGAGUA | -2.16 |
| UGACAGCAAUAUUACGAACU | -0.592 |
| CUAAAGCAAUAUUACGACGG | -0.113 |
| CAUCAGCAAUAUUACGCAUA | -1.59 |
| CAAUAGCAAUAUUACGUAUA | -3.6 |
| GGGGAGCAAUAUUACGCGAA | -2.75 |
| UGAUAGCAAUAUUACGGGGG | -1.83 |
| GUGGAGCAAUAUUACGUGUC | -3.84 |
| GCCCAGCAAUAUUACGGUGG | -3.21 |
| GCUAAGCAAUAUUACGUGAG | -0.321 |
| AUAAAGCAAUAUUACGAGGU | -3.99 |
| UUGGAGCAAUAUUACGGGGA | -3.14 |
| ACAGAGCAAUAUUACGUUCU | -3.89 |
| UAUCAGCAAUAUUACGAGAU | -3.27 |
| AAACAGCAAUAUUACGUAAA | -2.37 |
| CGAAAGCAAUAUUACGCAUG | -1.56 |
| GAGUAGCAAUAUUACGACGU | 0.156 |
| ACGCAGCAAUAUUACGCUUG | -3.56 |
| ACCAAGCAAUAUUACGGAGG | -1.63 |
| GAAGAGCAAUAUUACGAAUC | -3.48 |
| CUGCAGCAAUAUUACGUAAA | -3.28 |
| GGAGAGCAAUAUUACGUAGA | -4.01 |
| AGGUAGCAAUAUUACGUCAC | -3.76 |
| GCGAAGCAAUAUUACGGCCG | -1.71 |
| GAGGAGCAAUAUUACGUAAG | -3.04 |
| GUGUAGCAAUAUUACGCAUU | -2.29 |
| CCACAGCAAUAUUACGGGAA | -3.4 |
| AGUAAGCAAUAUUACGAUCU | 0.14 |
| AGAAAGCAAUAUUACGCCUA | -1.36 |
| GUUUAGCAAUAUUACGGAUU | -1.48 |
| UGUAAGCAAUAUUACGCUCU | 0.793 |
| UUUUAGCAAUAUUACGGGGG | -3.07 |
| UAAUAGCAAUAUUACGGGUA | -1.9 |
| AAAAAGCAAUAUUACGACCC | 0.000517 |
| UCUUAGCAAUAUUACGUAUG | -1.33 |

From: the supplement of paper PMC7877785
